assay: modulators of MEP2-GFP levels in yeast, confirmation, S. cerevisiae, flow cytometry GFP, cherry picks (AID 2272);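 note: ratio of well signal to plate DMSO mean so 100% equals DMSO level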; details: S. cerevisiae MEP2-GFP strain, 3 h, at 10 µM, hits give high values
value kind: GFP response vs DMSO (%)
Give bare numbers, in %.

Illustrative cases are given below, each with its answer.
{"molecule": "COc1ccc([N+](=O)[O-])c(S(=O)(=O)c2ccccc2)n1", "GFP response vs DMSO [%]": 112}
{"molecule": "Cn1c(C(=O)O)cc2c(=O)n3ccccc3nc21", "GFP response vs DMSO [%]": 104}
{"molecule": "CCOc1ccc(CNC(=O)CCC(=O)N2Cc3cccc(OC)c3Oc3ncccc32)cc1", "GFP response vs DMSO [%]": 100}
{"molecule": "COc1cc(NC(C)=O)ccc1NC(=O)c1cc2ccccc2o1", "GFP response vs DMSO [%]": 100}
{"molecule": "CC(C(=O)O)n1nc(-c2ccccc2)c2ccccc21 (configuration not stated)", "GFP response vs DMSO [%]": 99}

Please give GFP response vs DMSO, item by item, for the list that follows.
1. O=C(O)c1ccn2c(C(=O)c3ccccc3)c(-c3ccccc3)cc2c1
2. Cc1ccc2c(nc3s/c(=C\c4ccc(-c5ccccc5C(=O)O)o4)c(=O)n32)c1C
3. CCOC(=O)COc1c(Cl)cc(/C=C2\N=C(C)OC2=O)cc1OC
4. N#C/C(=C\c1c(N(Cc2ccccc2)Cc2ccccc2)nc2ccccn2c1=O)C(N)=O

Output line:
[94.1, 346, 104, 102]
